target: EGFR-viii (Homo sapiens, UniProt P00533, DELINS30-297G); test: PhosphoY1173-EGFR-viii in-cell ELISA in U87MG tumor cells engineered to express EGFR-viii; settings: U87MG tumor cells expressing EGFR-viii, in-cell ELISA; read-out: EC50 against EGFR-viii (phosphoY1173-EGFRviii)
Sequence (P00533 with tags, fused parts or gaps DELINS30-297G): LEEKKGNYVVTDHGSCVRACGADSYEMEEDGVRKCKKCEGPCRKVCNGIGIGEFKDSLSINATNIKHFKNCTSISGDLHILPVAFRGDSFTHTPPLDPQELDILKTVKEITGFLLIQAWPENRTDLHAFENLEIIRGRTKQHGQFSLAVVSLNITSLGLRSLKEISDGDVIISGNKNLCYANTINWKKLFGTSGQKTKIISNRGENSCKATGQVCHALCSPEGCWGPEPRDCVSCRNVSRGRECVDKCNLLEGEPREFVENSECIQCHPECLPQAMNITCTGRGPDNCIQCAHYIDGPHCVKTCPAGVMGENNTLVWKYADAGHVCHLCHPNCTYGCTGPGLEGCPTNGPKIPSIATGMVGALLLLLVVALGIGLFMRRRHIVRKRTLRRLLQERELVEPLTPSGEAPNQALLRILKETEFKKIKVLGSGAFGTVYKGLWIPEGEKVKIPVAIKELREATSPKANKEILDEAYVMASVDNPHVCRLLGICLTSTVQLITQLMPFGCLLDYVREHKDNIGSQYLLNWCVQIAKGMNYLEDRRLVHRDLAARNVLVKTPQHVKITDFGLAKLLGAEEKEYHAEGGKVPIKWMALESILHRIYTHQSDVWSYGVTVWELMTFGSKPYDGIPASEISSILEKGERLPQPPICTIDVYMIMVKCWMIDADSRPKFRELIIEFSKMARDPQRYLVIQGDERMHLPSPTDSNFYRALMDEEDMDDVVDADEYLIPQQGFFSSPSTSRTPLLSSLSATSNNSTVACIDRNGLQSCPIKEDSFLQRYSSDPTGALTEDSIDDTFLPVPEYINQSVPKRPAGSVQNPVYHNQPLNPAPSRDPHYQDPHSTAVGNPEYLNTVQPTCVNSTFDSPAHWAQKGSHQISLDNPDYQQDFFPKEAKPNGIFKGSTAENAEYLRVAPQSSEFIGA
quantity measured: EC50

Let me know recorded EC50 for `C=CC(=O)Nc1ccc2ncnc(Nc3ccc(OCc4cccc(F)c4)c(Cl)c3)c2c1` , thanks. < 50 nM
